test: stability of BD2K1 in water (deuterium oxide), 500 MHz NMR; format: physicochemical; settings: BD2K1 in deuterium oxide, room temperature about 27° C., after one week
TEST_READOUT: After One Week (share of ingredient in the solution by NMR) (%)

COMPOUND	READOUT_NUMBER
c1cnccn1 [pyrazine]	1
OC[C@H]1O[C@@H](N[C@@H]2O[C@H](CO)[C@@H](O)[C@H](O)[C@H]2O)[C@H](O)[C@@H](O)[C@@H]1O [BD2K1, di-Beta-D-glucopyranosylamine]	62

[A] OC[C@H]1O[C@@H](O)[C@H](O)[C@@H](O)[C@@H]1O [β-glucose]
[B] OC[C@H]1O[C@H](O)[C@H](O)[C@@H](O)[C@@H]1O [α-glucose]
## Input Which value of After One Week (share of ingredient in the solution by NMR) is numerically greater: that of A or that of B ? Select an item and report its label.
## Output A
